Where do these numbers come from? They come from patent US8987474B2.

Target: Shp2 (Homo sapiens (Human))
Sequence (Q06124 205-593): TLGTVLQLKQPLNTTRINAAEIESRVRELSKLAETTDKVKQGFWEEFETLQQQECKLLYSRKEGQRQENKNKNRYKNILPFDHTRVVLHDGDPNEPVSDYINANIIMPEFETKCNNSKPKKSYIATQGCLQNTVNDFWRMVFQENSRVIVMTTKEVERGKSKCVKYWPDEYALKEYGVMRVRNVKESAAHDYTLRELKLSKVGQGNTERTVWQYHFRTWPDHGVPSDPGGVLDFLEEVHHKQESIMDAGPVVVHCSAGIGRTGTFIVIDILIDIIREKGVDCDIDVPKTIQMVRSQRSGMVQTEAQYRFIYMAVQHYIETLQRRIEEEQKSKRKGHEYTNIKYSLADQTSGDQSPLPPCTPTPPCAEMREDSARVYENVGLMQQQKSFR
Assay: PTP activity assay (DiFMUP substrate) with GST-Shp2
Format: biochemical
Details: Table II, Shp2
Description: All constructs were verified by DNA sequencing. Recombinant DEP1 was from Abcam.
TEST_READOUT: IC50

**Q:** Tell me measured IC50 for O=C1Nc2ccc(S(=O)(=O)O)cc2/C1=N/Nc1ccccc1Cl [HL1-058-1] please.
**A:** 33 to 100 µM

**Q:** Query IC50 for CCc1ccccc1N/N=C1\C(=O)Nc2ccc(S(=O)(=O)O)cc21 [RPM219]
**A:** 33 to 100 µM

**Q:** Specify measured IC50 for O=C1Nc2ccc(S(=O)(=O)O)cc2/C1=N/Nc1ccccc1C(F)(F)F [RPM221] .
**A:** 33 to 100 µM

**Q:** Quote IC50 reported for O=C1Nc2ccc(S(=O)(=O)O)cc2/C1=N/Nc1c(F)c(F)c(F)c(F)c1F [RPM222] please.
**A:** 33 to 100 µM

**Q:** Using the record for O=C1Nc2ccc(S(=O)(=O)O)cc2/C1=N/Nc1nc2ccccc2s1 [HL1-058-3] , state its measured IC50.
**A:** 33 to 100 µM

**Q:** Assign IC50 to the following record: CC(C)NS(=O)(=O)c1ccc2c(c1)/C(=N/Nc1cccc(C(=O)NCc3cccnc3)c1)C(=O)N2 [RPM332]
**A:** 33 to 100 µM

**Q:** Look up and report measured IC50 for this entry: CC(C)NS(=O)(=O)c1ccc2c(c1)/C(=C/Nc1cccc(C(=O)O)c1)C(=O)N2 [RPM304]
**A:** 33 to 100 µM

**Q:** Look up IC50 of CCOC(=O)c1cccc(N/C=C2\C(=O)Nc3ccc(S(=O)(=O)NC(C)C)cc32)c1 [RPM302] and report it.
**A:** 33 to 100 µM

**Q:** For CC(C)NS(=O)(=O)c1ccc2c(c1)/C(=N/Nc1cccc(C(N)=O)c1)C(=O)N2 [RPM325] , write its IC50.
**A:** 33 to 100 µM
